Quick reference: EC50 of the listed items.
Target: GPR40 of human origin (Homo sapiens, UniProt O14842)
Sequence (O14842 whole entry): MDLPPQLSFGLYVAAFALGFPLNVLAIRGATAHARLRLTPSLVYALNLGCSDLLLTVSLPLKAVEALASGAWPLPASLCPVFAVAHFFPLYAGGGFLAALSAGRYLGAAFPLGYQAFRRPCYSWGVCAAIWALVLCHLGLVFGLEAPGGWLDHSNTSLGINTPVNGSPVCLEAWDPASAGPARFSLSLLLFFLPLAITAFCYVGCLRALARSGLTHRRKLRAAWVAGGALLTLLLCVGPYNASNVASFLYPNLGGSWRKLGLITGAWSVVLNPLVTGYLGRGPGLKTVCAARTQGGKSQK
Experiment: Agonist action on GPR40 of human origin (Ca2+ fluorescence, CHO cell strain stably expressing GPR40)
Conditions: fluctuation of Ca2+ concentration
Method: A CHO cell strain stably expressing GPR40 of human origin was used to determine the agonist action of a title compound. This cell strain was seeded in a clear bottom 96 well plate at 2×10^4 cells/100 μL/well. […] The title compound was diluted with a 20 mM HEPES-containing HBSS and was added to the cells by 50 μL, and the fluctuation of the Ca^2+concentration was measured by an intracellular ion analyzer. […]
Counter-ions that a name gives are not always drawn.

Name the reported EC50 value associated with the molecule Cc1cc(OCCCN)cc(C)c1-c1cccc(COc2ccc(C3CC(=O)N[S+]3[O-])cc2)c1 (stereo not drawn) [Example 11, trifluoroacetic acid salt]
< 300 nM

I'd like to know its EC50. The molecule in question is `Cc1cccc(C)c1-c1cccc(COc2ccc(N3CC(=O)NS3(=O)=O)c(Cl)c2)c1`
< 300 nM

Next, consider the following molecule.
Could you share which EC50 value was measured for Cc1cc(OCCC(C)(C)O)cc(C)c1-c1cccc2c1CC[C@H]2Oc1ccc(C2CC(=O)N[S+]2[O-])cc1 (single isomer, unassigned) ?
< 300 nM

Value source: patent US9040525B2
